experimental system: Amine oxidase [flavin-containing] A (Homo sapiens, UniProt P21397)
Sequence (P21397 whole entry): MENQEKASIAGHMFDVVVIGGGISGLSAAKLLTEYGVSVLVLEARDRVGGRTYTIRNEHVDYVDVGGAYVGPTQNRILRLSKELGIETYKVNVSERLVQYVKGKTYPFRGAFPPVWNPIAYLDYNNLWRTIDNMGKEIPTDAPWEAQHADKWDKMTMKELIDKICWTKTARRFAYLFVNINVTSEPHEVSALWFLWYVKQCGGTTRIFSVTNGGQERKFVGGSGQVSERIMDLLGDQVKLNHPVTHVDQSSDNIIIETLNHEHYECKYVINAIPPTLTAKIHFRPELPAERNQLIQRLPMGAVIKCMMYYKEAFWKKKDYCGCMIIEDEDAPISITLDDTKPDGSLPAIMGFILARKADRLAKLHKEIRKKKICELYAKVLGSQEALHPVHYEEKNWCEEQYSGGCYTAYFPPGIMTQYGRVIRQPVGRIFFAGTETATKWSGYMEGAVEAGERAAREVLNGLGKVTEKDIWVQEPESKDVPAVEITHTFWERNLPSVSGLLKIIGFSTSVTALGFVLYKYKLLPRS
assay notes: Inhibition of recombinant human MAO-A using kynuramine as substrate after 20 mins by fluorescence spectrophotometric analysis
Decide using IC50 alone. Strictly below 2000 nM: T. Equal to or above 2000 nM: F.

INSERT INTO results (smiles_str, assigned_class) VALUES
  ('O=C1/C(=C/c2cccc(Cl)c2)Cc2cc(O)ccc21', 'T'),
  ('COc1ccc2c(c1)C/C(=C\c1ccc(N(C)C)cc1)C2=O', 'F'),
  ('N#Cc1cccc(/C=C2\Cc3cc(O)ccc3C2=O)c1', 'T'),
  ('O=C1/C(=C/c2ccc(Br)cc2)Cc2cc(O)ccc21', 'T'),
  ('N#Cc1ccc(/C=C2\Cc3cc(O)ccc3C2=O)cc1', 'F');

---

Reported pIC50 values for a set of compounds
experimental system: UniProt:P21397
assay notes: Inhibition of recombinant human MAO-A using kynuramine as substrate after 20 mins by fluorescence spectrophotometric analysis
pIC50: −log10 of the molar value.
readout type: pIC50

INSERT INTO results (smiles_str, quantitative_readout) VALUES
  ('CC(C)c1ccc(/C=C2\Cc3cc(O)ccc3C2=O)cc1', 6.02),
  ('O=C1/C(=C/c2ccc(O)cc2)Cc2cc(O)ccc21', 5.78),
  ('O=C1/C(=C/c2ccc(Cl)c(Cl)c2)Cc2cc(O)ccc21', 6.63);

---

experimental system: Amine oxidase [flavin-containing] A (Homo sapiens, UniProt P21397)
assay notes: Inhibition of recombinant human MAO-A using kynuramine as substrate after 20 mins by fluorescence spectrophotometric analysis
pIC50: −log10 of the molar value.
pIC50 values, listed per item
readout type: pIC50

INSERT INTO assay_data (smiles_str, readout_type, quantitative_readout) VALUES
  ('Cc1cccc(/C=C2\Cc3cc(O)ccc3C2=O)c1', 'pIC50', 6.07),
  ('O=C1/C(=C/c2ccc(Cl)cc2)Cc2cc(O)ccc21', 'pIC50', 6.13),
  ('COc1cccc(/C=C2\Cc3cc(O)ccc3C2=O)c1', 'pIC50', 5.92),
  ('O=C1/C(=C/c2cccc(O)c2)Cc2cc(O)ccc21', 'pIC50', 5.92),
  ('CN(C)c1ccc(/C=C2\Cc3ccccc3C2=O)cc1', 'pIC50', 5.82),
  ('O=C1/C(=C/c2ccc(F)cc2)Cc2cc(O)ccc21', 'pIC50', 6.17),
  ('CN(C)c1ccc(/C=C2\Cc3cc(O)ccc3C2=O)cc1', 'pIC50', 5.76),
  ('O=C1/C(=C/c2cccc(F)c2)Cc2cc(O)ccc21', 'pIC50', 6.34),
  ('O=C1/C(=C/c2ccccc2)Cc2ccccc21', 'pIC50', 5.27);
